Items are presented alongside their recorded IC50.
system tested: βAR kinase (Bos taurus, UniProt P21146)
Construct: βAR kinase was purified from bovine cerebral cortex; from tissue; host or cells: bovine cerebral cortex
Sequence (P21146 whole entry): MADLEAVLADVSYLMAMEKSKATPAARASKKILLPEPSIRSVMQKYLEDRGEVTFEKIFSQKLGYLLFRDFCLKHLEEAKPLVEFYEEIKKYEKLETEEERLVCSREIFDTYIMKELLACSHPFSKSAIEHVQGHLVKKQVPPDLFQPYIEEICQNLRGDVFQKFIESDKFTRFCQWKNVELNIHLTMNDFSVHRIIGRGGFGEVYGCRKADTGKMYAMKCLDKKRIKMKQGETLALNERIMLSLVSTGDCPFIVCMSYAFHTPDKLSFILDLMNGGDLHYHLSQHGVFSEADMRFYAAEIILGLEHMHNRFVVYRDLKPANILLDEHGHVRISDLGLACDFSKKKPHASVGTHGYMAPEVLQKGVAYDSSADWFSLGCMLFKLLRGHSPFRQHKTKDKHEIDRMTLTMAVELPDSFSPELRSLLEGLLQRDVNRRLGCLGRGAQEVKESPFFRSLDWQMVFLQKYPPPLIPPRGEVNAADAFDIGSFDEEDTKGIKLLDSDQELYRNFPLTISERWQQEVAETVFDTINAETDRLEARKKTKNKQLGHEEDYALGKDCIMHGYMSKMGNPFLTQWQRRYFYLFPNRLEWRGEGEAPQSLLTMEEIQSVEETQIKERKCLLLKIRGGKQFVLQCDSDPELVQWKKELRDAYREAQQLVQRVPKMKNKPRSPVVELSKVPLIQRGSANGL
assay summary: Phosphorylation of rhodopsin (urea-treated rod outer segments) by βAR kinase
Assay type: biochemical, bovine
test settings: IC50 (concentration of compound which gave 50% inhibition of βAR kinase), rhodopsin as substrate

compound	IC50 / µM
Cc1ncc(COP(=O)(O)O)c(C=O)c1O [Pyridoxal phosphate, pyridoxal phosphate]	900
O=P(O)(O)O[C@H]1[C@H](OP(=O)(O)O)[C@@H](OP(=O)(O)O)[C@H](OP(=O)(O)O)[C@@H](OP(=O)(O)O)[C@H]1OP(=O)(O)O [Inositol hexaphosphate, inositol hexaphosphate]	3600
O=S(=O)(O)OC1C(OS(=O)(=O)O)C(OS(=O)(=O)O)C(OS(=O)(=O)O)C(OS(=O)(=O)O)C1OS(=O)(=O)O (stereo not drawn) [Inositol hexasulfate, inositol hexasulfate]	13.5

* * *

system tested: βAR kinase (Bos taurus, UniProt P21146)
Construct: βAR kinase was purified from bovine cerebral cortex; from tissue; host or cells: bovine cerebral cortex
assay summary: Phosphorylation of rhodopsin (urea-treated rod outer segments) by βAR kinase
Type: biochemical, bovine
test settings: read-out: IC50 (concentration of compound which gave 50% inhibition of βAR kinase); rhodopsin as substrate
pIC50: −log10 of the molar value.
Catalogue of pIC50 readings, one per entry.
measured property: pIC50

>>> df
                                   molecule  test_value
0  O=C(O)C(COP(=O)(O)O)OP(=O)(O)O (centres unmarked) [2,3-Diphosphoglycerate, 2,3-diphosphoglycerate]        2.96
1  O=S(=O)(O)NC1C(O)OC(COS(=O)(=O)O)C(O)C1O (centres unmarked) [Glucosamine 2,6-disulfate, glucosamine 2,6-disulfate]        2.14

* * *

Tested on: adenylyl cyclase in membranes of A431 cells
assay summary: cells
test settings: Homo sapiens, A-431, read-out: EC50, adenylyl cyclase stimulation, desensitized intact cells
Method: FIG. 5. […] Cells were incubated for 10 min with (desensitized) (●) or without (control) (◯) 1 μM (−)-isoproterenol as detailed. Adenylyl cyclase activities of membranes prepared from the cells were measured in the presence of various concentrations of (−)-isoproterenol and were expressed as percent of the activity in the presence of 10 mM NaF. […] Adenylyl cyclase activity in the membranes was determined as described by Salomon et al (Anal. Biochem. (1974) 58:541-548). […]
measured property: EC50 (nM)

>>> df
                                   molecule  measured_property  test_value
0  CC(C)NC[C@H](O)c1ccc(O)c(O)c1 [isoproterenol, (−)-isoproterenol]               EC50         300

* * *

Below, each entry is listed with its recorded pIC50.
system tested: βAR kinase (Bos taurus, UniProt P21146)
Construct: βAR kinase was purified from bovine cerebral cortex; from tissue; host or cells: bovine cerebral cortex
assay summary: Phosphorylation of rhodopsin (urea-treated rod outer segments) by βAR kinase
Type: biochemical, bovine
test settings: IC50 (concentration of compound which gave 50% inhibition of βAR kinase), rhodopsin as substrate; mean ± S.E.
pIC50: −log10 of the molar value.

compound	pIC50
O=S(=O)(O)OC1C(OS(=O)(=O)O)C(OS(=O)(=O)O)C(OS(=O)(=O)O)C(OS(=O)(=O)O)C1OS(=O)(=O)O (stereo not drawn) [Inositol hexasulfate, inositol hexasulfate]	4.74
Cc1ncc(COP(=O)(O)O)c(C=O)c1O [Pyridoxal phosphate, pyridoxal phosphate]	3.05
O=P(O)(O)O[C@H]1[C@H](OP(=O)(O)O)[C@@H](OP(=O)(O)O)[C@H](OP(=O)(O)O)[C@@H](OP(=O)(O)O)[C@H]1OP(=O)(O)O [Inositol hexaphosphate, inositol hexaphosphate]	2.30
